This collection of values is drawn from patent US7118895B2.

System: Crude diglycosidase
Test: Examination of substrate concentration in the conversion into isoflavone aglycons by diglycosidase using soybean materials;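 note: percent of the isoflavone family total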
Format: biochemical, Penicillium multicolor IAM7153
Conditions: concentrated soybean protein, substrate concentration 20%, heat treatment of enzyme no, reaction time 6 h
QUANTITY_KIND: Decomposition efficiency: ratio of each glycoside/aglycon within its isoflavone family (%)
// note: answer is a bare numeric in %

COc1cc2c(=O)c(-c3ccc(O)cc3)coc2cc1O[C@@H]1O[C@H](COC(C)=O)[C@@H](O)[C@H](O)[C@H]1O [acetylglycitin, 6″-O-acetylglycitin] = 30.5
CC(=O)OC[C@H]1O[C@@H](Oc2cc(O)c3c(=O)c(-c4ccc(O)cc4)coc3c2)[C@H](O)[C@@H](O)[C@@H]1O [acetylgenistin, 6″-O-acetylgenistin] = 42.3

# get_value(readout='Decomposition efficiency: ratio of each glycoside/aglycon within its isoflavone family', item= COc1cc2c(=O)c(-c3ccc(O)cc3)coc2cc1O[C@@H]1O[C@H](COC(=O)CC(=O)O)[C@@H](O)[C@H](O)[C@H]1O [malonylglycitin, 6″-O-malonylglycitin] )
0.3

====

System: Crude diglycosidase
Experiment: Examination of pH in the conversion into isoflavone aglycons by diglycosidase using soybean materials
Assay type: biochemical, Penicillium multicolor IAM7153
Parameters: concentration or dose not given beside the values
Settings: pH4.8; heat treatment of enzyme: no; reaction time 6 h
Reported Decomposition efficiency of genistin family in defatted soybean values for the following compounds.
State the answer as a number, implicitly in %.

Example entries and their recorded answers appear below.
O=C(O)CC(=O)OC[C@H]1O[C@@H](Oc2cc(O)c3c(=O)c(-c4ccc(O)cc4)coc3c2)[C@H](O)[C@@H](O)[C@@H]1O = 31.1
O=c1c(-c2ccc(O)cc2)coc2cc(O)cc(O)c12 = 68.5

Now look at this one.
Please look up its Decomposition efficiency of genistin family in defatted soybean: CC(=O)OC[C@H]1O[C@@H](Oc2cc(O)c3c(=O)c(-c4ccc(O)cc4)coc3c2)[C@H](O)[C@@H](O)[C@@H]1O
0.4

====

Test system: Crude diglycosidase
Assay: Examination of temperature in the conversion into isoflavone aglycons by diglycosidase using soybean materials
Type: biochemical, Penicillium multicolor IAM7153
Settings: 30° C., heat treatment of enzyme no, reaction time 1 h
QUANTITY_KIND: Decomposition efficiency of genistin family in defatted soybean (%)
Give your result in % as a bare value.

Worked cases, Decomposition efficiency of genistin family in defatted soybean given:
O=c1c(-c2ccc(O)cc2)coc2cc(O)cc(O)c12 = 47.4
CC(=O)OC[C@H]1O[C@@H](Oc2cc(O)c3c(=O)c(-c4ccc(O)cc4)coc3c2)[C@H](O)[C@@H](O)[C@@H]1O = 1.3

Tell me the measured Decomposition efficiency of genistin family in defatted soybean of O=C(O)CC(=O)OC[C@H]1O[C@@H](Oc2cc(O)c3c(=O)c(-c4ccc(O)cc4)coc3c2)[C@H](O)[C@@H](O)[C@@H]1O , please.
51.3

====

Quick reference for aglycon among some molecules
Test system: Diglycosidase derived from A. fumigatus
Test: Reactivity toward various isoflavone glycosides (HPLC)
Format: biochemical, Aspergillus fumigatus
Set-up: unit not given here
Conditions: Reaction time 0 h; 55 °C, pH 4.0
Give only the figure.

COc1cc2c(=O)c(-c3ccc(O)cc3)coc2cc1O[C@@H]1O[C@H](COC(=O)CC(=O)O)[C@@H](O)[C@H](O)[C@H]1O [malonylglycitin, 6″-O-malonylglycitin] = 0

Recorded aglycon of CC(=O)OC[C@H]1O[C@@H](Oc2cc(O)c3c(=O)c(-c4ccc(O)cc4)coc3c2)[C@H](O)[C@@H](O)[C@@H]1O [acetylgenistin, 6″-O-acetylgenistin] , please.
0

Fill in: aglycon of CC(=O)OC[C@H]1O[C@@H](Oc2ccc3c(=O)c(-c4ccc(O)cc4)coc3c2)[C@H](O)[C@@H](O)[C@@H]1O [acetyldaidzin, 6″-O-acetyldaidzin] is ___
0

====

Tested on: Crude diglycosidase
Test: Examination of pH in the conversion into isoflavone aglycons by diglycosidase using soybean materials
Type: biochemical, Penicillium multicolor IAM7153
Conditions: pH2, heat treatment of enzyme yes, reaction time 6 h, 55° C.
Reported Decomposition efficiency of glycitin family in roasted soy flour values for the following compounds.
Please give only the number in your answer, with no unit.

Reference set, count: 2
COc1cc2c(=O)c(-c3ccc(O)cc3)coc2cc1O[C@@H]1O[C@H](COC(C)=O)[C@@H](O)[C@H](O)[C@H]1O = 35.2
COc1cc2c(=O)c(-c3ccc(O)cc3)coc2cc1O[C@@H]1O[C@H](CO)[C@@H](O)[C@H](O)[C@H]1O = 54.4

Please turn your attention to the following entry.
Item under review: COc1cc2c(=O)c(-c3ccc(O)cc3)coc2cc1O . Reported Decomposition efficiency of glycitin family in roasted soy flour?
10.4

====

Test system: Crude diglycosidase
Test: Examination of substrate concentration in the conversion into isoflavone aglycons by diglycosidase using soybean materials;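 note: percent of the isoflavone family total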
Assay type: biochemical, Penicillium multicolor IAM7153
Settings: soymilk, substrate concentration 5%, heat treatment of enzyme no, reaction time 3 h
QUANTITY_KIND: Decomposition efficiency: ratio of each glycoside/aglycon within its isoflavone family

CC(=O)OC[C@H]1O[C@@H](Oc2ccc3c(=O)c(-c4ccc(O)cc4)coc3c2)[C@H](O)[C@@H](O)[C@@H]1O [acetyl-daidzin] = not detected
O=C(O)CC(=O)OC[C@H]1O[C@@H](Oc2cc(O)c3c(=O)c(-c4ccc(O)cc4)coc3c2)[C@H](O)[C@@H](O)[C@@H]1O [malonylgenistin, 6″-O-malonylgenistin] = 6.9%
O=c1c(-c2ccc(O)cc2)coc2cc(O[C@@H]3O[C@H](CO)[C@@H](O)[C@H](O)[C@H]3O)cc(O)c12 [genistin] = not detected

====

Tested on: Crude diglycosidase
Test: Examination of pH in the conversion into isoflavone aglycons by diglycosidase using soybean materials
Format: biochemical, Penicillium multicolor IAM7153
Design: concentration or dose not given beside the values
Settings: pH7.8; heat treatment of enzyme: no; reaction time 0 h
Experimental: A substrate solution of 450 μL was prepared by suspending 50 mg of each soybean material (roasted soy flour (manufactured by Fuji Shokuryo K.K.), soymilk (manufactured by Gitoh Shokuhin K.K.), defatted soybean (manufactured by Fuji Seiyu K.K.), concentrated soybean protein (manufactured by Fuji Seiyu K.K.)), and adjusting the pH to 2 to 11 with hydrochloric acid or sodium hydroxide. […]
QUANTITY_KIND: Decomposition efficiency of daidzin family in defatted soybean (%)
Form entry: value (%) — number only.

O=c1c(-c2ccc(O)cc2)coc2cc(O[C@@H]3O[C@H](CO)[C@@H](O)[C@H](O)[C@H]3O)ccc12 = 44.7
O=C(O)CC(=O)OC[C@H]1O[C@@H](Oc2ccc3c(=O)c(-c4ccc(O)cc4)coc3c2)[C@H](O)[C@@H](O)[C@@H]1O = 42.0

Next compound, please.
Can you share its Decomposition efficiency of daidzin family in defatted soybean? I mean this compound: O=c1c(-c2ccc(O)cc2)coc2cc(O)ccc12
13.3

====

Tested on: Crude diglycosidase
Test: Examination of temperature in the conversion into isoflavone aglycons by diglycosidase using soybean materials
Type: biochemical, Penicillium multicolor IAM7153
Design: concentration or dose not given beside the values
Conditions: 55° C., heat treatment of enzyme no, reaction time 0 h
Entries and their Decomposition efficiency of glycitin family in defatted soybean
Write down the numeric answer in % and omit the unit.

COc1cc2c(=O)c(-c3ccc(O)cc3)coc2cc1O[C@@H]1O[C@H](COC(=O)CC(=O)O)[C@@H](O)[C@H](O)[C@H]1O [malonylglycitin, 6″-O-malonylglycitin] = 61.3

Reported Decomposition efficiency of glycitin family in defatted soybean, molecule COc1cc2c(=O)c(-c3ccc(O)cc3)coc2cc1O [glycitein] : ____
38.7

====

Tested on: Crude diglycosidase
Assay: Examination of pH in the conversion into isoflavone aglycons by diglycosidase using soybean materials
Type: biochemical, Penicillium multicolor IAM7153
Design: concentration or dose not given beside the values
Conditions: pH3.4; heat treatment of enzyme: no; reaction time 3 h
Procedure: A substrate solution of 450 μL was prepared by suspending 50 mg of each soybean material (roasted soy flour (manufactured by Fuji Shokuryo K.K.), soymilk (manufactured by Gitoh Shokuhin K.K.), defatted soybean (manufactured by Fuji Seiyu K.K.), concentrated soybean protein (manufactured by Fuji Seiyu K.K.)), and adjusting the pH to 2 to 11 with hydrochloric acid or sodium hydroxide. […]
QUANTITY_KIND: Decomposition efficiency of daidzin family in defatted soybean

CC(=O)OC[C@H]1O[C@@H](Oc2ccc3c(=O)c(-c4ccc(O)cc4)coc3c2)[C@H](O)[C@@H](O)[C@@H]1O = not detected
O=C(O)CC(=O)OC[C@H]1O[C@@H](Oc2ccc3c(=O)c(-c4ccc(O)cc4)coc3c2)[C@H](O)[C@@H](O)[C@@H]1O = 34.5%
O=c1c(-c2ccc(O)cc2)coc2cc(O)ccc12 = 65.5%
O=c1c(-c2ccc(O)cc2)coc2cc(O[C@@H]3O[C@H](CO)[C@@H](O)[C@H](O)[C@H]3O)ccc12 = not detected
